Cited source: patent US20130053541A1

Let's look at some binders and their measured log2 (Sample B/Sample A).
System Name: T1, native human ESRRG protein (Estrogen-receptor related receptor gamma) (human, UniProt P62508 229-458, limits assumed)
T1 construct: the screened protein is called 'native human ESRRG protein'; also called ESSRG; ERRγ
T1 sequence (looked up): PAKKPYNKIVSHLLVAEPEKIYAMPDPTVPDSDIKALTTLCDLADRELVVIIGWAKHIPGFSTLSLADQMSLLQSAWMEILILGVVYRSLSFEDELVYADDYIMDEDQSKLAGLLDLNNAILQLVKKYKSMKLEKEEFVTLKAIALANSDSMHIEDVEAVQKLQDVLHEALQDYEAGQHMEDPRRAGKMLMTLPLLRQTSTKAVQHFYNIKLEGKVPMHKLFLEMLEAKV
Assay Protocol: peptide microarray, Iteration 2; bound ESRRG detected with fluorescent anti-ESRRG mAb
Where no end group is shown, it is not given here.
Could you respond with only the numeric value?

Example results:
Ac-PFKLKQGN = 2.2
Ac-FFNFSLPA = 2.66
Ac-HNNFSLEP = 2.03
Ac-IFLLQQDN = 2.08
Ac-HFKLKQGG = 2.28

Q: Give the measured log2 (Sample B/Sample A) for Ac-WANYLLPP
Result: 3.97

Q: Give the reported value of log2 (Sample B/Sample A) for this record: Ac-PDSYPRWG
Result: 4.27

Q: Supply measured log2 (Sample B/Sample A) of Ac-WIKLKQND in your reply.
Result: 3.69

Q: Answer with the recorded log2 (Sample B/Sample A) for the binder listed here: Ac-NLLLKHPD
Result: 3.41

Q: Give recorded log2 (Sample B/Sample A). Ac-DINFSLGI
Result: 4.9

Q: Given the binder Ac-HYKLKQHE , write its reported log2 (Sample B/Sample A).
Result: 2.97

Q: Read off the recorded log2 (Sample B/Sample A) for Ac-FVNFSLGI
Result: 1.92

Q: For the binder Ac-FFKGHFKF , report log2 (Sample B/Sample A).
Result: 3.32

Q: Identify the reported log2 (Sample B/Sample A) for the following entry. Ac-LYLLKHHP
Result: 3.05

Q: Please give measured log2 (Sample B/Sample A) of the following entry: Ac-NNSYPRHR
Result: 2.23

Q: In one line, give reported log2 (Sample B/Sample A) of the entry Ac-EESYPRDK .
Result: 2.19
